Molecular target: fatty acyl CoA:cholesterol acyl transferase (ACAT) (Rattus norvegicus, UniProt O70536)
Construct: The supernatant, containing the microsomal fraction, served as the source of the cholesterol-esterifying enzyme; from tissue; host or cells: rat adrenals (1000 x g supernatant containing the microsomal fraction)
Sequence (O70536 whole entry): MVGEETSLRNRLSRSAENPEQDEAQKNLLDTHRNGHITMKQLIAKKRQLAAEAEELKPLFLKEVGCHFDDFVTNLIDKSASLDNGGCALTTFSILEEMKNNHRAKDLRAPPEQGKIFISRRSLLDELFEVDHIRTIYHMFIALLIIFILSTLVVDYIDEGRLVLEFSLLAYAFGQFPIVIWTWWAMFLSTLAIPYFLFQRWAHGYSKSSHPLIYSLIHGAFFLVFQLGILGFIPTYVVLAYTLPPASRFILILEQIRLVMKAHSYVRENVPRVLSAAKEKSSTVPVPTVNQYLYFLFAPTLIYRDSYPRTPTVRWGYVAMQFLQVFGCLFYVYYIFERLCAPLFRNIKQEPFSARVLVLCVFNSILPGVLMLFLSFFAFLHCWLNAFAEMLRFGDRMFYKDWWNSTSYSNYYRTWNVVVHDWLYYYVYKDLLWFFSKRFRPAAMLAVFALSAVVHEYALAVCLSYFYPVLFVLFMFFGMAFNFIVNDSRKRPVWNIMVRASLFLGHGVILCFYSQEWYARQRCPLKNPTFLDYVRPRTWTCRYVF
Assay: Inhibition of ACAT in rat adrenal microsomal supernatant (14C-oleoyl CoA, cholesteryl ester counted)
Assay type: biochemical
Design: dose or concentration left out as unconfirmed
Conditions: vs control without compound
Catalogue of molecules with associated % Inhibition
Numbers only here, please. The scale is %.

Some solved cases for reference:
Lab note: CCCCN(CCCC)C(=O)Nc1cccc(C(C)=O)c1 [1,1-di-(n-butyl)-3-(3-acetylphenyl)urea, 1,1-Di-(n-butyl)-3-(3-acetylphenyl)urea] gave % Inhibition of 50.9

Lab note: CCCCN(CCCC)C(=O)Nc1cccc(Cl)c1C gave % Inhibition of 80.2

***
Lab note: Cc1ccc(NC(=O)N(CC(C)C)CC(C)C)cc1NC(=O)N(CC(C)C)CC(C)C gave % Inhibition of 94.7

Lab note: CCCCN(CCCC)C(=O)Nc1ccc(I)cc1 [1,1-di-(n-butyl)-3-(4-iodophenyl)urea, 1,1-Di-(n-butyl)-3-(4-iodophenyl)urea] gave % Inhibition of 83.1

Lab note: CCCCN(CCCC)C(=O)Nc1ccc(C(C)C)cc1 gave % Inhibition of 76.4

Lab note: CC(C)CN(CC(C)C)C(=O)Nc1ccccc1Cl [1,1-di-(isobutyl)-3-(2-chlorophenyl)urea] gave % Inhibition of 35.4

Lab note: CCCCN(CCCC)C(=O)Nc1ccc(C)cc1 [1,1-di-(n-butyl)-3-(4-methylphenyl)urea, 1,1-Di-(n-butyl)-3-(4-methylphenyl)urea] gave % Inhibition of 79.9

Lab note: CCCCN(CCCC)C(=O)Nc1ccc(OCC)cc1 [1,1-di-(n-butyl)-3-(4-ethoxyphenyl)urea, 1,1-Di-(n-butyl)-3-(4-ethoxyphenyl)urea] gave % Inhibition of 78.6

Lab note: CCCCN(CCCC)C(=O)Nc1cccc(Cl)c1Cl gave % Inhibition of 71.8

Lab note: CCCCN(CCCC)C(=O)Nc1cccc(Br)c1 [1,1-di-(n-butyl)-3-(3-bromophenyl)urea, 1,1-Di(n-butyl)-3-(3-bromophenyl)urea] gave % Inhibition of 86.0

Lab note: CCCCN(CCCC)C(=O)Nc1c(C)cc(C)cc1C gave % Inhibition of 73.4

----------
Biological target: fatty acyl CoA:cholesterol acyl transferase (ACAT) (Rattus norvegicus, UniProt O70536)
Construct: The supernatant, containing the microsomal fraction, served as the source of the cholesterol-esterifying enzyme; from tissue; host or cells: rat adrenals (1000 x g supernatant containing the microsomal fraction)
Assay: Inhibition of ACAT in rat adrenal microsomal supernatant (14C-oleoyl CoA, cholesteryl ester counted)
Assay type: biochemical
Set-up: dose or concentration left out as unconfirmed
Settings: vs control without compound
Protocol: The compounds of the present invention were assayed for two types of biological activity related to their potential use as antiatherosclerotic agents. Compounds were tested in vitro for the ability to inhibit the enzyme fatty acyl CoA:cholesterol acyl transferase (ACAT) and in vivo for serum hypolipidemic activity as measured by their ability to inhibit lipid absorption in rats. The compounds were tested for their ability to inhibit ACAT according to the following procedure: […]
measurement-name: % Inhibition (%)
Numbers only here, please. The scale is %.

Lab note: Cc1ccc(NC(=O)N(CCC(C)C)CCC(C)C)c(C)c1 gave % Inhibition of 88.7

Lab note: CCCCN(CCCC)C(=O)Nc1cccc(OC)c1 gave % Inhibition of 77.1

Lab note: Cc1cccc(C)c1NC(=O)N(CC(C)C)CC(C)C gave % Inhibition of 41.2

Lab note: CCCCCCCCCN(CCCCCCCCC)C(=O)Nc1ccc(C)cc1C gave % Inhibition of 90.0

***
Lab note: CCCCN(CCCC)C(=O)Nc1ccc(OC)cc1 gave % Inhibition of 58.7

Lab note: Cc1ccc(NC(=O)N(CCC(C)CC(C)(C)C)CCC(C)CC(C)(C)C)c(C)c1 (centres unmarked) gave % Inhibition of 90.4

Lab note: CCCCCCN(CCCCCC)C(=O)Nc1ccc(C)cc1C gave % Inhibition of 95.1

Lab note: CCCCN(CCCC)C(=O)Nc1ccc(Cl)cc1Cl gave % Inhibition of 70.0

Lab note: CCC(C)N(C(=O)Nc1ccc(C)cc1C)C(C)CC (centres unmarked) gave % Inhibition of 78.1

Lab note: CCCCN(CCCC)C(=O)Nc1ccc(Cl)cc1C gave % Inhibition of 88.0

Lab note: CCCCN(CCCC)C(=O)Nc1cccc(C)c1C gave % Inhibition of 87.6

----------
Target: fatty acyl CoA:cholesterol acyl transferase (ACAT) (Rattus norvegicus)
Construct: The supernatant, containing the microsomal fraction, served as the source of the cholesterol-esterifying enzyme; from tissue; host or cells: rat adrenals (1000 x g supernatant containing the microsomal fraction)
Assay: Inhibition of ACAT in rat adrenal microsomal supernatant (14C-oleoyl CoA, cholesteryl ester counted)
Assay type: biochemical
Set-up: dose or concentration left out as unconfirmed
Conditions: vs control without compound
Catalogue of molecules with associated % Inhibition

Lab note: CCCCN(CCCC)C(=O)Nc1c(C)cccc1C gave % Inhibition of 85.3%

Lab note: CCCCCCCCN(CCCCCCCC)C(=O)Nc1ccc(C)cc1C gave % Inhibition of 88.6%

Lab note: CCCCN(CCCC)C(=O)Nc1ccc(C)cc1C gave % Inhibition of 81.1%

Lab note: CCCCCCCCCCCN(CCCCCCCCCCC)C(=O)Nc1ccc(C)cc1C gave % Inhibition of 48.9%

Lab note: CCCCN(CCCC)C(=O)Nc1cccc(SC)c1 gave % Inhibition of 84.7%

Lab note: CCCCN(CCCC)C(=O)Nc1ccc(F)cc1 [1,1-di-(n-butyl)-3-(4-fluorophenyl)urea, 1,1-Di-(n-butyl)-3-(4-fluorophenyl)urea] gave % Inhibition of 55.9%

Lab note: CCCCN(CCCC)C(=O)Nc1cc(C)cc(C)c1 gave % Inhibition of 83.5%

Lab note: CCCCN(CCCC)C(=O)Nc1cccc(C(F)(F)F)c1 gave % Inhibition of 75.0%

Lab note: CCCCCN(CCCCC)C(=O)Nc1ccc(C)cc1C gave % Inhibition of 90.3%

These measurements were taken from patent US4387105A.
